TARGET_UNDER_TEST: full-length human PKCι (Homo sapiens)
Construct: Recombinant, full-length human PKCι expressed in Sf21 insect cells is also commercially available; purchased; host or cells: Sf21 insect cells
MEASUREMENT_NOTES: PKCι IC50 IMAP fluorescence polarisation assay, full-length enzyme
Type: biochemical
TEST_CONTEXT: full length PKCi at 15 μM ATP; read-out: IC50 in IMAP assay against full length PKCi (Activity)
pIC50: −log10 of the molar value.
OBSERVED_PROPERTY: pIC50

> print(dat)
                                    molecule   measurement
 1  CN1CCc2c(sc3nc(-c4ccncc4)nc(NCCN)c23)C1 [compound 113]  4.40 to 5.00
 2  C[C@H](N)CNc1nc(-c2ccncc2)nc2sc3c(c12)CCN(C(=O)OC(C)(C)C)C3 [compound 96]  4.40 to 5.00
 3  N[C@@H](CNc1nc(-c2ccncc2)nc2sc3c(c12)CCCCC3)Cc1ccccc1 [compound 70]  5.00 to 6.00
 4  Cc1ccccc1C[C@H](N)CNc1nc(-c2ccncc2)nc2sc3c(c12)CCCC3 [compound 53]  6.00 to 7.00
 5  N[C@H](CNc1nc(-c2ccncc2)nc2sc3c(c12)CCN(C(=O)c1ccccc1)C3)Cc1ccccc1 [compound 72]  5.00 to 6.00
 6  CC1(C)CCc2c(sc3nc(-c4ccncc4)nc(NC[C@@H](N)Cc4ccccc4)c23)C1 [compound 77]  4.40 to 5.00
 7  CC(C)(C)OC(=O)N1CCc2c(sc3nc(-c4ccncc4)nc(NC[C@@H](N)Cc4ccccc4)c23)C1 [compound 90]  5.00 to 6.00
 8  N[C@H](CNc1nc(-c2ccncc2O)nc2sc3c(c12)CCCC3)Cc1ccccc1 [compound 103]  5.00 to 6.00
 9  NCCNc1nc(-c2ccncc2)nc2sc3c(c12)CCCC3 [compound 12]  6.00 to 7.00
10  N[C@@H](CNc1nc(-c2ccncc2)nc2sc3c(c12)CCOC3)Cc1ccccc1 [compound 83]  4.40 to 5.00
11  N[C@@H](CNc1nc(-c2ccncc2)nc2sc3c(c12)CCN(C(=O)c1ccccc1)C3)Cc1ccccc1 [compound 73]  5.00 to 6.00

###

TARGET_UNDER_TEST: full-length human PKCι (Homo sapiens, UniProt P41743)
Construct: Recombinant, full-length human PKCι expressed in Sf21 insect cells is also commercially available; purchased; host or cells: Sf21 insect cells
MEASUREMENT_NOTES: PKCι IC50 IMAP fluorescence polarisation assay, full-length enzyme
Type: biochemical
TEST_CONTEXT: full length PKCi at 15 μM ATP; read-out: IC50 in IMAP assay against full length PKCi (Activity)
pIC50: −log10 of the molar value.
OBSERVED_PROPERTY: pIC50

> print(dat)
                               given.smiles   measurement
1  N[C@H](CNc1nc(-c2ccncc2)nc2sc3c(c12)CCCC3)Cc1ccccc1F  6.00 to 7.00
2  N[C@H](CNc1nc(-c2ccncc2)nc2sc3c(c12)CCCC3)Cc1ccc(O)cc1  5.00 to 6.00
3  N[C@H](CNc1nc(-c2ccncc2)nc2sc3c(c12)CCCC3)Cc1ccccn1  5.00 to 6.00
4  NCCNc1nc(-c2ccncc2)nc2sc3c(c12)CCC1(C3)OCCO1  5.00 to 6.00
5  N[C@H](CNc1nc(-c2ccncc2)nc2sc3c(c12)CCCC3)Cc1cccc(O)c1  6.00 to 7.00
6  Cc1ccc(C[C@H](N)CNc2nc(-c3ccncc3)nc3sc4c(c23)CCCC4)cc1  5.00 to 6.00
7  N[C@@H](CNc1nc(-c2ccncc2)nc2sc3c(c12)CCSC3)Cc1ccccc1  5.00 to 6.00
8  N[C@H](CNc1nc(-c2ccncc2)nc2sc3c(c12)CCC1(C3)OCCO1)Cc1ccccc1  5.00 to 6.00
9  COc1ccc(C[C@H](N)CNc2nc(-c3ccncc3)nc3sc4c(c23)CCCC4)cc1  6.00 to 7.00

###

TARGET_UNDER_TEST: full-length human PKCι (Homo sapiens)
Construct: Recombinant, full-length human PKCι expressed in Sf21 insect cells is also commercially available; purchased; host or cells: Sf21 insect cells
Sequence (P41743 1-596): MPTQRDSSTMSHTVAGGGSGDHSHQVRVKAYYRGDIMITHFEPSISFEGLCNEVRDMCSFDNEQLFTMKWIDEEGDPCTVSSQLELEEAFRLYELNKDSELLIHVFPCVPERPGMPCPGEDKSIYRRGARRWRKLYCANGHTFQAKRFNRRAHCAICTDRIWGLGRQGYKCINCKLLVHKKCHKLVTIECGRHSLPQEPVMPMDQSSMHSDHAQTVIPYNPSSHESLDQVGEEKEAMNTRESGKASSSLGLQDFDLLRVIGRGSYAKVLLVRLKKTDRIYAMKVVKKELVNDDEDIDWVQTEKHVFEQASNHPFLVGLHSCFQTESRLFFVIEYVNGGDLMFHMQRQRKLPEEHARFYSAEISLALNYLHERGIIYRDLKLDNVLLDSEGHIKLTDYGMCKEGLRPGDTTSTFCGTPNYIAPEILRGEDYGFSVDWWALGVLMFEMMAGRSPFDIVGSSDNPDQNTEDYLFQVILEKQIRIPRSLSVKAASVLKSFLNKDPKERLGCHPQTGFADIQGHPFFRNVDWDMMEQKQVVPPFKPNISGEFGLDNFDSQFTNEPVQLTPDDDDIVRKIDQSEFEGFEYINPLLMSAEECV
MEASUREMENT_NOTES: PKCι IC50 IMAP fluorescence polarisation assay, full-length enzyme
Type: biochemical
TEST_CONTEXT: full length PKCi at 15 μM ATP; read-out: IC50 in IMAP assay against full length PKCi
pIC50: −log10 of the molar value.
pIC50 values for the molecules below.
OBSERVED_PROPERTY: pIC50

> print(dat)
                                    molecule  observed.property   measurement
 1  Cc1sc2c(NC[C@@H](N)Cc3ccccc3)nc(-c3ccncc3)nc2c1-c1ccccc1 [compound 449]              pIC50  5.00 to 6.00
 2  CNCCNc1nc(-c2ccncc2)nc2c(Br)csc12 [compound 345]              pIC50  5.00 to 6.00
 3  Cc1ccc(Nc2cc(-c3nc(N[C@@H]4CCNC4)c4sccc4n3)ccn2)nn1 [compound 588]              pIC50  6.00 to 7.00
 4  CCC[C@H](O)C#Cc1csc2c(NC[C@@H](N)Cc3ccccc3)nc(-c3ccncc3)nc12 [compound 526]              pIC50  6.00 to 7.00
 5  O=C(Nc1cc(-c2nc(N[C@H]3CNC[C@@H]3O)c3sccc3n2)ccn1)c1cccs1 [compound 627]              pIC50  5.00 to 6.00
 6  CC(C)(O)C#Cc1csc2c(N[C@@H]3CCNC3)nc(-c3ccncc3F)nc12 [compound 519]              pIC50  5.00 to 6.00
 7  N[C@H](CNc1nc(-c2ccncc2)nc2c(Br)csc12)Cc1ccccc1 [compound 336]              pIC50        > 7.00
 8  CC(C)Cn1cc(-c2csc3c(NC[C@@H](N)Cc4ccccc4)nc(-c4ccncc4)nc23)cn1 [compound 394]              pIC50  5.00 to 6.00
 9  CCC(O)(C#Cc1csc2c(NC[C@@H](N)Cc3ccccc3)nc(-c3ccncc3)nc12)CC [compound 525]              pIC50  5.00 to 6.00
10  CC#Cc1csc2c(NC[C@@H](N)Cc3ccccc3)nc(-c3ccncc3)nc12 [compound 542]              pIC50        > 7.00
11  Cn1ccc(-c2csc3c(NC[C@@H](N)Cc4ccccc4)nc(-c4ccncc4)nc23)n1 [compound 415]              pIC50  5.00 to 6.00
12  N[C@H](CNc1nc(-c2ccnc(NC(=O)c3cccs3)c2)nc2ccsc12)Cc1ccc(C(F)(F)F)cc1 [compound 630]              pIC50  4.40 to 5.00
13  Fc1cnccc1-c1nc(N[C@@H]2CCNC2)c2scc(Nc3cccnc3)c2n1 [compound 494]              pIC50  4.40 to 5.00
14  Fc1cnc(Nc2cnccn2)cc1-c1nc(N[C@@H]2CCNC2)c2sccc2n1 [compound 580]              pIC50  6.00 to 7.00

###

TARGET_UNDER_TEST: kinase-domain human PKCι (Homo sapiens, UniProt P41743)
Construct: Recombinant, kinase-domain human PKCι is expressed and purified in-house; made in house
MEASUREMENT_NOTES: PKCι IC50 IMAP fluorescence polarisation assay, kinase-domain enzyme
Type: biochemical
TEST_CONTEXT: kinase domain PKCi at 2 μM ATP; read-out: IC50 in IMAP assay against kinase domain PKCi (Activity)
IC50 values for the compounds below.
OBSERVED_PROPERTY: IC50

> print(dat)
                                given.smiles  observed.property  measurement
 1  c1cc(-c2nc(N[C@H]3CCNC3)c3c4c(sc3n2)CCCC4)ccn1               IC50   1 to 10 µM
 2  Cc1n[nH]c(C)c1-c1nc(N[C@@H]2CCNC2)c2c3c(sc2n1)CCCC3               IC50  0.1 to 1 µM
 3  CC[C@@H](N)CNc1nc(-c2ccncc2)nc2sc3c(c12)CCCC3               IC50   1 to 10 µM
 4  CC(C)[C@@H](N)COc1nc(-c2ccncc2)nc2sc3c(c12)CCCC3               IC50  10 to 40 µM
 5  N[C@@H](COc1nc(-c2ccncc2)nc2sc3c(c12)CCCC3)c1ccccc1               IC50  10 to 40 µM
 6  Cc1sc2nc(-c3ccncc3)nc(N3CCCNCC3)c2c1-c1ccccc1               IC50   1 to 10 µM
 7  N[C@H](COc1nc(-c2ccncc2)nc2sc3c(c12)CCCC3)Cc1ccccc1F               IC50   1 to 10 µM
 8  c1n[nH]cc1-c1nc(N[C@@H]2CCNC2)c2c3c(sc2n1)CCCC3               IC50  0.1 to 1 µM
 9  Brc1ccc(-c2csc3nc(-c4ccncc4)nc(N4CCCNCC4)c23)cc1               IC50   1 to 10 µM
10  c1ccc(-c2cc3nc(-c4ccncc4)nc(N4CCNCC4)c3s2)cc1               IC50   1 to 10 µM

// data source = patent US10183950B2
